Sourced from ChEMBL document CHEMBL1149322

pKi values for the compounds below.
# Subject of test: Carbonic anhydrase 2 (Homo sapiens, UniProt P00918)
// field semantics: pKi = negative decimal log of concentration (mol/L)

Consider the worked cases shown below.
>>> recorded_number("Cn1nc(S(N)(=O)=O)s/c1=N/C(=O)c1ccco1")
8.22
>>> recorded_number("NS(=O)(=O)c1ccc(NS(=O)(=O)c2ccc(F)cc2)cc1")
8.05
>>> recorded_number("NS(=O)(=O)c1ccc(CCNS(=O)(=O)c2ccccc2)cc1")
7.55
>>> recorded_number("CC(=O)Nc1ccc(S(=O)(=O)Nc2nnc(S(N)(=O)=O)s2)cc1F")
9.00
>>> recorded_number("NS(=O)(=O)c1nnc(NC(=O)CCCCC(F)(F)C(F)(F)F)s1")
8.70

Lab note: need pKi with Carbonic anhydrase 2 (Homo sapiens, UniProt P00918) for entry `CC(=O)Nc1ccc(S(=O)(=O)Nc2nnc(S(N)(=O)=O)s2)cc1Cl` , please look it up. 9.00

Can you handle `CCCCCC(=O)Nc1ccc(S(N)(=O)=O)cc1` next? 7.20
